Listed next: entries and their corresponding melting point.
Property name: melting point

>>> df
                           substance_smiles         result
0  C=CCN(Cc1c(-c2ccccc2)sc(N)c1C(=O)c1ccc(Cl)cc1)C1CCCCC1  151 to 157 °C
1  Nc1sc(-c2cccs2)c(CN(C2CCCCC2)C2CCCCC2)c1C(=O)c1ccc(Cl)cc1  197 to 199 °C
2  Nc1sc(-c2ccccc2)c(CN(C2CCCC2)C2CCCC2)c1C(=O)c1ccc(Cl)cc1  135 to 141 °C
3  COCCOc1ccc(-c2sc(N)c(C(=O)c3ccc(Cl)cc3)c2CN(C2CCCCC2)C2CCCCC2)cc1  162 to 164 °C
4  Nc1sc(-c2ccccc2F)c(CN(C2CCCCC2)C2CCCCC2)c1C(=O)c1ccc(Cl)cc1  223 to 225 °C
5  Nc1sc(/C=C/Cc2ccc(Cl)cc2)c(CN(C2CCCCC2)C2CCCCC2)c1C(=O)c1ccc(Cl)cc1  143 to 146 °C
6  Nc1sc(-c2ccc(Cl)cc2)c(CN(C2CCCCC2)C2CCCCC2)c1C(=O)c1ccc(Cl)cc1  200 to 204 °C
7  Nc1sc(-c2ccco2)c(CN(C2CCCCC2)C2CCCCC2)c1C(=O)c1ccc(Cl)cc1  158 to 160 °C
8  Nc1sc(/C=C/CC2CCCCC2)c(CN(C2CCCCC2)C2CCCCC2)c1C(=O)c1ccc(Cl)cc1  147 to 150 °C
9  Nc1sc(-c2cccnc2)c(CN(C2CCCCC2)C2CCCCC2)c1C(=O)c1ccc(Cl)cc1  168 to 170 °C
